molecular target: IKKε (Homo sapiens (Human)); test: IKKε TR-FRET enzymatic assay; type: biochemical; settings: read-out: IKKe IC50
Sequence (Q14164 whole entry): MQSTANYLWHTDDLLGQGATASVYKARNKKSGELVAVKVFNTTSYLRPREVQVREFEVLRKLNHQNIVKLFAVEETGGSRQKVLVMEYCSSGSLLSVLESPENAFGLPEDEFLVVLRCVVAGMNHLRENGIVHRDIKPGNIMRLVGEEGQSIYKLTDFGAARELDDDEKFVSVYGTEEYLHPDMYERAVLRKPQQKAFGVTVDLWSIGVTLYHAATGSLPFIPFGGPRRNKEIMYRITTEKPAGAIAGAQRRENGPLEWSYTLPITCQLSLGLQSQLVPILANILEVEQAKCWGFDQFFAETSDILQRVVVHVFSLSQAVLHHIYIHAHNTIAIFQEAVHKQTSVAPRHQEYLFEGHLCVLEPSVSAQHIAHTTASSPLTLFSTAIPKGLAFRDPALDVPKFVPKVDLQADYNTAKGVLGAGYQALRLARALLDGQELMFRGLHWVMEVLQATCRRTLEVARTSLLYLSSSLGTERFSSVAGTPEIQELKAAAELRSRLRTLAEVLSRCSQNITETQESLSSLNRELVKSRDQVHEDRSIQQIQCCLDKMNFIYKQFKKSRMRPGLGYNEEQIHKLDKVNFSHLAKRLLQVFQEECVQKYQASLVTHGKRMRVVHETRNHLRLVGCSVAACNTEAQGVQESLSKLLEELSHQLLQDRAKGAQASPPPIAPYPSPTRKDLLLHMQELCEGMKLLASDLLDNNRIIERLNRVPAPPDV
READOUT NAME: IC50 (nM)

{"COMPOUND": "CN1CCN(c2cccc(Nc3ncnc(-c4ccc(OC5CCOCC5)c(C#N)c4)n3)c2)CC1 [Example 62]", "IC50 (nM)": 3}

I = C[C@H](CO)C(=O)N1CC[C@H](Oc2ccc(-c3ncnc(Nc4ccc(N5CCN(C6COC6)CC5)cc4)n3)cc2C#N)[C@H](F)C1 [Example 124]
II = N#Cc1cc(-c2ncnc(Nc3ccc(N4CCN(C5COC5)CC4)cc3)n2)ccc1N1CC[C@@H](O)C1 [Example 202]
III = COC(=O)N1CC[C@H](Oc2ccc(-c3ncnc(Nc4ccc(N5CCN(C6COC6)CC5)cc4)n3)cc2C#N)[C@H](F)C1 [Example 290]
query: # rank_down: sort by IC50, max first Order the labels as requested and list them.
result: I, III, II

---

target: TBK1 (Homo sapiens (Human), UniProt Q9UHD2); test: TBK1 TR-FRET enzymatic assay
Sequence (Q9UHD2 whole entry): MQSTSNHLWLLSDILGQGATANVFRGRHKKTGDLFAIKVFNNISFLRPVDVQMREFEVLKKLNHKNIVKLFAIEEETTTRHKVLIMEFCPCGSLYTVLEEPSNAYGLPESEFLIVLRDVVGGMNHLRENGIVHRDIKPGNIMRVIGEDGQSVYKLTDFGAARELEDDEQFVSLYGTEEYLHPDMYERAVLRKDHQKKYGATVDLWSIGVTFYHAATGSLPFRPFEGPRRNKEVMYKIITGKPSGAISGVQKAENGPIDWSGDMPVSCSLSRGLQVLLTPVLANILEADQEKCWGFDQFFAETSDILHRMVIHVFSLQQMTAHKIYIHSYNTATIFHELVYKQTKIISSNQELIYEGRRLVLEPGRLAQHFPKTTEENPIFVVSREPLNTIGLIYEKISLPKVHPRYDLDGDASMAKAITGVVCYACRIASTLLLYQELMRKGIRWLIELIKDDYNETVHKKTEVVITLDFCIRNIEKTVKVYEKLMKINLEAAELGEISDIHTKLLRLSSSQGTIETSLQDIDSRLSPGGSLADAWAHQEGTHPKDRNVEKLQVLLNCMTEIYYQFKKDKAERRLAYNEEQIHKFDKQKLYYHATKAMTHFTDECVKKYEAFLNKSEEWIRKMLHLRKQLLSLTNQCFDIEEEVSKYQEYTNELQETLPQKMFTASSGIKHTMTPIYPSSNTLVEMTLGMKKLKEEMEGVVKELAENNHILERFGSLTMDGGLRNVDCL
pIC50: −log10 of the molar value.
READOUT NAME: pIC50

a = N#Cc1cc(-c2ncnc(Nc3cnn(C(F)F)c3)n2)ccc1O[C@H]1CCN(C(=O)[C@@H](O)CO)C[C@H]1F [Example 456]
b = C[C@H]1C[C@@H](Oc2ccc(-c3ncnc(Nc4ccc(N5CCN(C6COC6)CC5)cc4)n3)cc2C#N)CN1C(=O)CO [Example 100]
c = C[C@H]1CN(c2ccc(Nc3ncnc(-c4ccc(O[C@H]5CCN(C(=O)CO)CC5(F)F)c(C#N)c4)n3)cc2)CCN1C1COC1 [Example 261]
query: # desc sort on pIC50 across 3 compounds Order the labels as requested and list them.
result: c, a, b
(c: 9.00, a: 8.40, b: 6.92)

---

biological target: TBK1 (Homo sapiens (Human), UniProt Q9UHD2); assay: TBK1 TR-FRET enzymatic assay;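 further: phosphorylation of a biotinylated Ser/Thr peptide by purified full-length recombinant TBK1, read by TR-FRET after 240 min at 25 °C, IC50 is the geometric mean of at least four runs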
READOUT NAME: IC50 (nM)

Here is how some compounds turned out for IC50.
{"COMPOUND": "C[C@H](O)C(=O)N1CC[C@H](Oc2ccc(-c3ncnc(Nc4cnc(N5CCN(C6COC6)CC5)c(F)c4)n3)cc2C#N)[C@H](F)C1", "TARGET": "TBK1 (Homo sapiens (Human), UniProt Q9UHD2)", "IC50 / nM": 6}
{"COMPOUND": "C[C@H](O)C(=O)N1CC[C@H](Oc2ccc(-c3ncnc(Nc4ccc(N5CCOC[C@H]5CO)cc4)n3)cc2C#N)[C@H](F)C1", "TARGET": "TBK1 (Homo sapiens (Human), UniProt Q9UHD2)", "IC50 / nM": 2}
{"COMPOUND": "C[C@H]1CN(C(=O)CO)C[C@@H]1Oc1ccc(-c2ncnc(Nc3ccc(N4CCN(C5COC5)CC4)cc3)n2)cc1C#N", "TARGET": "TBK1 (Homo sapiens (Human), UniProt Q9UHD2)", "IC50 / nM": 8}
{"COMPOUND": "CN1CC(Oc2ccc(-c3ncnc(Nc4ccc(N5CCN(C6COC6)CC5)cc4)n3)cc2C#N)CNC1=O (centres unmarked)", "TARGET": "TBK1 (Homo sapiens (Human), UniProt Q9UHD2)", "IC50 / nM": 80}
{"COMPOUND": "C[C@H]1CN(C2COC2)CCN1c1ccc(Nc2ncnc(-c3ccc(O[C@H]4CCN(C(=O)c5nnc[nH]5)CC4(F)F)c(C#N)c3)n2)cc1", "TARGET": "TBK1 (Homo sapiens (Human), UniProt Q9UHD2)", "IC50 / nM": 2}

1 = N#Cc1cc(-c2ncnc(Nc3ccc(N4CCN(C5COC5)CC4)cc3)n2)ccc1O[C@H]1CCN(C(=O)CCO)CC1(F)F
2 = N#Cc1cc(-c2ncnc(Nc3ccc(N4CCN(C5COC5)CC4)cc3)n2)ccc1O[C@H]1CCN(C(=O)[C@H]2CNC(=O)C2)C[C@H]1F
3 = C[C@H](O)C(=O)N1CC[C@H](Oc2ccc(-c3ncnc(Nc4ccc([C@H]5CCCN5C5COC5)cc4)n3)cc2C#N)[C@H](F)C1
4 = C[C@H](O)C(=O)N1CC[C@H](Oc2ccc(-c3ncnc(Nc4ccc(N5CCN(C6COC6)CC5)c(F)c4)n3)cc2C#N)[C@H](F)C1
query: List by increasing IC50. Order the labels as requested and list them.
result: 1, 4, 3, 2
(1: 2 nM, 4: 3 nM, 3: 5 nM, 2: 28 nM)

a = N#Cc1cc(-c2ncnc(Nc3ccc(N4CCN(C5COC5)CC4)cc3)n2)ccc1O[C@H]1CCN(C(=O)c2nnc[nH]2)C[C@H]1F
b = N#Cc1cc(-c2ncnc(Nc3ccc(N4CCN(C5COC5)CC4)cc3)n2)ccc1O[C@@H]1CCNC1
c = N#Cc1cc(-c2ncnc(Nc3ccc(N4CCN(C5COC5)CC4)cc3)n2)ccc1N1CC[C@H](F)C1
d = C[C@@H](O)C(=O)N1CCC(Oc2ccc(-c3ncnc(Nc4ccc(N5CCN(C6COC6)CC5)cc4)n3)cc2C#N)CC1
query: # rank_down: sort by IC50, max first Order the labels as requested and list them.
result: d, b, a, c
(d: 44 nM, b: 30 nM, a: 2 nM, c: 1 nM)

I = CC1(C)CN(C(=O)CC#N)C[C@H](F)[C@@H]1Oc1ccc(-c2ncnc(Nc3ccc(N4CCN(C5COC5)CC4)cc3)n2)cc1C#N
II = CNC(=O)c1ccc(Nc2ncnc(-c3ccc(OC4CCOCC4)c(C#N)c3)n2)cc1
III = COCC(=O)N1CC[C@H](Oc2ccc(-c3ncnc(Nc4ccc(N5CCN(C6COC6)CC5)cc4)n3)cc2C#N)[C@H](F)C1
query: # rank_down: sort by IC50, max first Order the labels as requested and list them.
result: I, II, III
(I: 35 nM, II: 4 nM, III: 2 nM)
